# experimentalSystem: Tyrosine-protein phosphatase non-receptor type substrate 1 (Homo sapiens) + Leukocyte surface antigen CD47 (Homo sapiens) (UniProt P78324+Q08722)
# Sequence (P78324 whole entry, looked up): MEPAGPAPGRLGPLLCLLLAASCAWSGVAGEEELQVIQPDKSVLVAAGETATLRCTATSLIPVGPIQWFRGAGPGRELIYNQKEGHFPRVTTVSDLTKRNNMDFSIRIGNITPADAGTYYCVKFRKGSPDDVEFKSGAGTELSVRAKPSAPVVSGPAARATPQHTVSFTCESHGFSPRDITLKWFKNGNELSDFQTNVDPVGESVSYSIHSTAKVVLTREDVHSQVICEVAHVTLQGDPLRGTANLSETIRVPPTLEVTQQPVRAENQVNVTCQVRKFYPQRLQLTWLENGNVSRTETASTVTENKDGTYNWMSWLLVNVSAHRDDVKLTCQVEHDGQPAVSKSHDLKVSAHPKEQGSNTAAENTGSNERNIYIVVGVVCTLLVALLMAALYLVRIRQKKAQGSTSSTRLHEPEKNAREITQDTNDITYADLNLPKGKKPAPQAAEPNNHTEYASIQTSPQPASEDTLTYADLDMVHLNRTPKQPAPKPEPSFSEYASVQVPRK
# Sequence (Q08722 whole entry, looked up): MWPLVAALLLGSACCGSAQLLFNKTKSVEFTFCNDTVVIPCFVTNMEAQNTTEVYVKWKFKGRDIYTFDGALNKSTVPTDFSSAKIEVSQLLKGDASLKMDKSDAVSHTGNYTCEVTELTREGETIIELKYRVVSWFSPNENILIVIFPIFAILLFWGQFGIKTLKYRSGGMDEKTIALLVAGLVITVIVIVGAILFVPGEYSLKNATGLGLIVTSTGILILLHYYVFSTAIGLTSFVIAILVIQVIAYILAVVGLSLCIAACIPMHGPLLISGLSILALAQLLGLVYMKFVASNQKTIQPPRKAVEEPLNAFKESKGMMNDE
# assayName: CD47-SIRPalpha protein protein interaction - Alpha assay qHTS validation (AID 1347059);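 also: bead proximity luminescence from CD47 binding SIRPalpha after compound preincubation with SIRPalpha; % is scaled to controls: 0 for no effect and ±100 for the full control effect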
# conditionInfo: AlphaScreen CD47-His/biotin-SIRPalpha binding, LOPAC; series mostly up to 38.3 µM
# Description: SIRPalpha is a myeloid cell expressed immunomodulatory receptor that binds the tumor expressed immune checkpoint CD47. Therapeutic disruption of this interaction leads to immune-mediated tumor rejection. This assay was used to quantitate CD47-SIRPalpha binding biochemically and evaluate chemical libraries for novel CD47-SIRPalpha inhibitors. […] The CD47-SIRPalpha interaction was measured by AlphaScreen using affinity tag linked reagents (Ni-NTA acceptor bead and streptavidin donor bead). […]
Records with an inconclusive call do not appear. Calls of active or inactive are those of the source. Calls follow the shape of the dose curve; as a rule, active = well fitted inhibition curve with a large enough effect; inconclusive = small, poorly fitted or top-dose-only effect; inactive = flat fitted curve, though single readings scatter.

{"columns": ["compound", "outcome"],
 "data": [
  ["CC(CCc1ccccc1)NC(C)C(O)c1ccc(O)cc1 (configuration not stated)", "inactive"],
  ["O=c1[nH]c2ccccc2n1C1CCN(CCCC(c2ccc(F)cc2)c2ccc(F)cc2)CC1", "inactive"],
  ["Nc1ccncc1", "inactive"],
  ["Cc1ncc(CNC(=O)N(CCCl)N=O)c(N)n1", "inactive"],
  ["CCCN1CCC[C@@H]2Cc3nc(N)ncc3C[C@H]21", "inactive"],
  ["NCC(O)c1ccc(O)cc1 (configuration not stated)", "inactive"],
  ["c1ccc2c(c1)OCC(C1=NCCN1)O2 (configuration not stated)", "inactive"],
  ["CC(=O)[C@H]1CC[C@H]2[C@@H]3CC[C@H]4C[C@H](O)CC[C@]4(C)[C@H]3C(=O)C[C@]12C", "inactive"],
  ["CCC1(C2=NCCN2)Cc2ccccc2O1 (configuration not stated)", "inactive"],
  ["Cc1cccc(C)c1NC(=O)CN1CCCC1=O", "inactive"],
  ["COC[C@H]1OC(=O)c2coc3c2[C@@]1(C)C1=C(C3=O)C2CCC(=O)[C@@]2(C)C[C@H]1OC(C)=O (some centres not stated)", "inactive"],
  ["NCC1(CC(=O)O)CCCCC1", "inactive"]
]}

---

# assayName: S16 Schwann cell PMP22 intronic element beta-lactamase assay (AID 624044); also: nearly all actives have a fitted effect of over 15% in size
# conditionInfo: S16 rat Schwann cells, PMP22 element beta-lactamase FRET, 24 h; series mostly up to 38.3 µM
Records with an inconclusive call do not appear. Activity calls are given as the source filed them. Calls follow the shape of the full dose curve.
Classes used: label 1 = active, label 0 = inactive

{"columns": ["molecule", "cat"],
 "data": [
  ["CCC(COC(=O)c1cc(OC)c(OC)c(OC)c1)(c1ccccc1)N(C)C (stereo not drawn)", "label 0"],
  ["CCCSc1ccc2nc(NC(=O)OC)[nH]c2c1", "label 1"],
  ["CN1C[C@H](CNC(=O)OCc2ccccc2)C[C@@H]2c3cccc4c3c(cn4C)C[C@H]21", "label 0"],
  ["Cc1ncc(CNC(=O)N(CCCl)N=O)c(N)n1", "label 0"],
  ["CCN(CC)CCN1C(=O)CN=C(c2ccccc2F)c2cc(Cl)ccc21", "label 0"],
  ["O=P1(NCCCl)OCCCN1CCCl (stereo not drawn)", "label 0"],
  ["O=c1[nH]cc(F)c(=O)[nH]1", "label 1"],
  ["Cc1ccc(S(=O)(=O)N[C@@H](CCCCN)C(=O)CCl)cc1", "label 0"],
  ["CCOP(=S)(OCC)Oc1cc(C)nc(C(C)C)n1", "label 0"],
  ["CC(=O)[C@H]1CC[C@H]2[C@@H]3CC[C@H]4C[C@](C)(O)CC[C@]4(C)[C@H]3CC[C@]12C", "label 0"],
  ["NCCc1cc(O)c(O)cc1O", "label 0"],
  ["CCN(CC)CCOC(=O)C(O)(c1ccccc1)c1ccccc1", "label 0"],
  ["COc1ccccc1N1CCNCC1", "label 0"]
]}

---

Overview of recorded activity, negative = inhibition for various molecules
# assayName: qHTS profiling for inhibitors of Plasmodium falciparum proliferation (AID 504749);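 also: 0% = DMSO vehicle and full inhibition = artemisinin control; nearly all actives have a fitted effect of over 60% in size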
# conditionInfo: P. falciparum in erythrocytes, SYBR Green DNA, 72 h; at 28.7 µM (top of the series); parasite line B
Results filed as inconclusive are left out.
valueType: activity, negative = inhibition (%)

{"columns": ["molecule", "measuredResult"],
 "data": [
  ["CC1NCCOC1c1ccccc1 (stereo not drawn)", 5.03],
  ["CC(C)(N)Cc1ccc(Cl)cc1", 1.12],
  ["NCC(CC(=O)O)c1ccc(Cl)cc1 (stereo not drawn)", 18.2],
  ["CN(C)CCc1ccc(O)cc1", 2.47],
  ["NCC(O)c1ccc(O)cc1 (stereo not drawn)", 3.73],
  ["Cc1ncc(CNC(=O)N(CCCl)N=O)c(N)n1", 3.28],
  ["CN1C(=S)CN=C(c2ccccc2)c2cc(Cl)ccc21", 2.35],
  ["CC[C@@H](CO)NC(=O)[C@@H]1C=C2c3cccc4[nH]cc(c34)C[C@H]2N(C)C1", 1.58],
  ["CC(C)=CC1C(C(=O)OCc2cccc(Oc3ccccc3)c2)C1(C)C (stereo not drawn)", -17.5],
  ["Nc1ccncc1", 1.68],
  ["CCC1(C2=NCCN2)Cc2ccccc2O1 (stereo not drawn)", 6.35],
  ["N#CC(C#N)=Cc1ccc(O)c(O)c1", -25.8],
  ["CC[N+]1(C)CCCC(OC(=O)C(O)(c2ccccc2)c2ccccc2)C1 (stereo not drawn)", 2.86]
]}

---

# conditionInfo: Ebola virus entry assay, reporter ratio channel; Channel type: primary
The source made the active and inactive calls. How the calls were made is not given here.

{"columns": ["compound", "AC50"],
 "data": [
  ["Cc1cccc(C)c1NC(=O)CN1CCN(CCCC(c2ccc(F)cc2)c2ccc(F)cc2)CC1", "3.16 µM (active)"],
  ["CN1CCN(C2=Nc3cc(Cl)ccc3Nc3ccccc32)CC1", "14.1 µM (active)"],
  ["Fc1ccc([C@@H]2CCNC[C@H]2COc2ccc3c(c2)OCO3)cc1", "3.98 µM (active)"],
  ["COc1cc(NC(C)CCCN)c2ncccc2c1 (stereo not drawn)", "3.55 µM (active)"],
  ["OCCOCCN1CCN(C(c2ccccc2)c2ccc(Cl)cc2)CC1 (stereo not drawn)", "31.6 µM (active)"],
  ["COc1cc2nc(N3CCN(C(=O)C4CCCO4)CC3)nc(N)c2cc1OC (stereo not drawn)", "28.2 µM (active)"],
  ["CNCCC(Oc1ccc(C(F)(F)F)cc1)c1ccccc1 (stereo not drawn)", "3.55 µM (active)"],
  ["c1ccc(C2CC2)c(OCC2=NCCN2)c1", "39.8 µM (active)"],
  ["C[C@]12C/C(=C/O)C(=O)C[C@@H]1CC[C@@H]1[C@@H]2CC[C@@]2(C)[C@H]1CC[C@]2(C)O", "14.1 µM (active)"],
  ["CCN(CC)CCCC(C)Nc1ccnc2cc(Cl)ccc12 (stereo not drawn)", "1.12 µM (active)"],
  ["C=CC(=O)Nc1cc2c(Nc3ccc(F)c(Cl)c3)ncnc2cc1OCCCN1CCOCC1", "2.82 µM (active)"],
  ["CCN(CC)C(=O)N[C@@H]1C=C2c3cccc4[nH]cc(c34)C[C@@H]2N(C)C1", "31.6 µM (active)"],
  ["O=c1[nH]c2ccccc2n1C1CCN(CCCC(c2ccc(F)cc2)c2ccc(F)cc2)CC1", "3.98 µM (active)"]
]}

---

# assayName: Quantitative High-Throughput drug screen in 47 multiple myeloma cell lines against the NCATS MIPE library collection: PCM6_Riken cell viability assay (AID 1919870); also: nearly all actives have a fitted effect of over 30% in size
# conditionInfo: CellTiter-Glo ATP, 48 h; series mostly up to 45.8 µM
Results filed as inconclusive are left out. Calls of active or inactive are those of the source. Calls follow the shape of the dose curve; as a rule, active = well fitted cell-killing curve with a large enough effect; inconclusive = small, poorly fitted or top-dose-only effect, or effect the other way; inactive = no such curve, though single readings can be large or run the other way.
Outcome codes: label 1 for active, label 0 for inactive

{"columns": ["compound", "cat"],
 "data": [
  ["O=C1CC[C@@]2(O)[C@H]3Cc4ccc(O)c5c4[C@@]2(CCN3CC2CC2)[C@H]1O5", "label 0"],
  ["CCCC(C)(COC(N)=O)COC(=O)NC(C)C (centres undefined)", "label 0"],
  ["C[C@@H]1[C@@H](CC(C[C@H]2O[C@@H]3O[C@]4(C)CC[C@@H]5[C@H](C)CC[C@@H]([C@H]2C)[C@@]35OO4)C[S+](=O)([O-])c2ccc(COC(=O)N(C)C)cc2)O[C@@H]2O[C@]3(C)CC[C@H]4[C@H](C)CC[C@@H]1[C@@]24OO3 (some centres undefined)", "label 1"],
  ["Fc1ccc(C(OCCN2CCN(CCCc3ccccc3)CC2)c2ccc(F)cc2)cc1", "label 1"],
  ["NCC1(CC(=O)O)CCCCC1", "label 1"],
  ["CN(C)CCc1ccc(O)cc1", "label 0"],
  ["CNC(=O)N1N=C(c2ccc(N)cc2)c2cc3c(cc2CC1C)OCO3 (centres undefined)", "label 1"],
  ["CNC(=O)c1ccc(N2C(=S)N(c3ccc(C#N)c(C(F)(F)F)c3)C(=O)C23CCC3)cc1F", "label 1"],
  ["Cc1cccc(C)c1NC(=O)CN1CCCC1=O", "label 0"],
  ["Cn1cc(C2=C(c3cn(C4CCN(Cc5ccccn5)CC4)c4ccccc34)C(=O)NC2=O)c2ccccc21", "label 1"],
  ["CC(O)(CS(=O)(=O)c1ccc(F)cc1)C(=O)Nc1ccc(C#N)c(C(F)(F)F)c1 (centres undefined)", "label 1"],
  ["COC[C@H]1OC(=O)c2coc3c2[C@@]1(C)C1=C(C3=O)C2CCC(=O)[C@@]2(C)C[C@H]1OC(C)=O (some centres undefined)", "label 1"],
  ["CN1CCN(C(=O)O[C@H]2c3nccnc3C(=O)N2c2ccc(Cl)cn2)CC1", "label 0"],
  ["CN(C)[C@@H]1C(=O)C(C(N)=O)=C(O)[C@@]2(O)C(=O)C3=C(O)c4c(O)cccc4[C@@](C)(O)[C@H]3C[C@@H]12", "label 0"]
]}
